System: HOP-92 NSCLC
Method description: NCI tumour cell line growth inhibition, 48 h; in the data active means GI50 below about 0.43 µM; inactive means the rest
Can you answer with just one of these options? active, inactive

Check out these entries, answers already filled in.
Molecule	Discrete label
CC(=O)[O-].CC(=O)[O-].[Pt+2].c1cscn1.c1cscn1	inactive
CC(=O)c1c(C)[nH]c(-c2nc3ccc(N4CCN(C)CC4)cc3[nH]2)c1-c1ccc(OCC2CCOCC2)cc1	active
COc1cc(/C=C/C(=O)CC(=O)/C=C/c2cc(OC)c(OC)c(OC)c2)cc(OC)c1OC	inactive
Cc1nc2sc(C(=O)Nc3cccc(Cl)c3C)c(N)c2cc1C(=O)/C=C/c1ccccc1	active
CSc1ccc(C2=NN(C(=O)c3ccc(F)cc3)C(c3ccc(F)cc3)C2)cc1 (configuration not stated)	inactive
CN[C@@H](C)C(=O)N[C@H](C(=O)N1CCC[C@H]1C(=O)N[C@H]1c2ccccc2C[C@H]1OCC#CC#CCO[C@@H]1Cc2ccccc2[C@@H]1NC(=O)[C@@H]1CCCN1C(=O)[C@@H](NC(=O)[C@H](C)NC)C1CCCCC1)C1CCCCC1	inactive
CC1=C2[C@@H](CC1)[C@]1(C)O[C@@](C3CCCCC3)(C[C@H]1OC(=O)CO)[C@H]2OC(=O)/C=C/c1ccccc1	inactive
O=c1c(Oc2ccc(F)cc2F)cc2cnc(NC3CCOCC3)nc2n1C1CCS(=O)(=O)CC1	inactive
CCN(CC)CCCC(C)Nc1c2ccc(Cl)cc2nc2ccc(OC)cc12 (configuration not stated)	inactive
O=C(O[C@H]1CN[C@H](C#Cc2cc3ncnc(Nc4ccc5c(ccn5Cc5cc(F)ccc5F)c4)c3s2)C1)N1CCOCC1	active

### Prompt State the result this test recorded for CC[C@H](NC(=O)[C@H](C)NC)C(=O)N1C[C@@H](O)C[C@H]1Cc1c(-c2[nH]c3cc(F)ccc3c2C[C@@H]2C[C@H](O)CN2C(=O)[C@H](CC)NC(=O)[C@H](C)NC)[nH]c2cc(F)ccc12 .
### Response inactive

### Prompt Call for entry COc1cc(Nc2nccc(Nc3ccc4c(C)[nH]nc4c3)n2)cc(OC)c1OC :
### Response active

###

Test system: EKVX NSCLC
Method description: NCI tumour cell line growth inhibition, 48 h
Known GI50 of a selection of molecules

> print(dat)
                                   molecule  assayed.target  quantity  measured
1  O=C1c2ccccc2-c2c1c1ccccc1c(=O)n2CCCNCCCn1ccnc1      EKVX NSCLC      GI50   4.75 µM
2  O=c1c2cc(Cl)ccc2oc2ccc(OCCCCCN3CCCCC3)cc12      EKVX NSCLC      GI50   6.25 µM
3  COc1cc(Nc2nccc(Nc3ccc4c(C)[nH]nc4c3)n2)cc(OC)c1OC      EKVX NSCLC      GI50   1.87 µM
4  Cc1nc2sc(C(=O)Nc3cccc(Cl)c3C)c(N)c2cc1C(=O)/C=C/c1ccccc1      EKVX NSCLC      GI50   1.12 µM

### Prompt Quote GI50 reported for CC1=C2[C@@H](CC1)[C@]1(C)O[C@@](C3CCCCC3)(C[C@H]1OC(=O)CO)[C@H]2OC(=O)/C=C/c1ccccc1 please.
### Response 5.83 µM

### Prompt Give reported GI50 value for Cc1ccccc1NC(=O)N/C(N)=N/c1nc(-c2cccc([N+](=O)[O-])c2)cs1
### Response 1.94 µM

### Prompt // fetch GI50 given entry O=C1Nc2ccc(C(=O)c3ccco3)cc2/C1=C/c1cc(Cl)c(O)c(Cl)c1
### Response 11 µM
